// reported TGI for each item listed
# Test system: OVCAR-8 ovarian
# TEST DESCRIPTION: NCI tumour cell line growth inhibition, 48 h
QUANTITY NAME: TGI

COc1cc2nc(-c3cc(F)ccc3O)nc(N[C@@H]3CNC[C@H]3C(C)(C)O)c2cc1OC
3.07 µM
N[C@H](C(=O)O)[C@@H]1CC(Br)=NO1
> 100 µM
Nc1ccc2c(c1)nc1n2C(c2c(F)cccc2F)SC1 (configuration not stated)
> 100 µM
CCOP1(=O)C=C(C)C(Cl)=C(C)C1 (configuration not stated)
> 100 µM
CN1C(c2ccccc2)CC(=O)C(N)C1c1ccccc1 (configuration not stated)
> 81.2 µM
COc1cc(/C=C/C(=O)c2cccc(-n3cc(-c4ccc(Cl)cc4)[nH]c3=O)c2)cc(OC)c1OC
> 100 µM
CC(C)(C)C1=CC(C)(n2[nH]c(=O)n(-c3ccccc3)c2=O)C=C(C(C)(C)C)C1=O
> 100 µM
COC(=O)c1c(C)n([O-])c2cc(Cl)c(Cl)cc2[n+]1=O
59.3 µM
Cc1ccc(/C(C#N)=C/c2cccc([N+](=O)[O-])c2)cc1
> 100 µM
CC(=O)C1=CN=C2C(=O)N(c3ccccc3)N(C)C12C (configuration not stated)
> 100 µM
C(=N/N(Cc1ccccc1)Cc1ccccc1)/c1ccccc1
> 100 µM
O=C1CSC2(CC(/C=C/c3cccc([N+](=O)[O-])c3)=NN2c2cccc(S(=O)(=O)O)c2)N1c1nc2ccccc2s1 (configuration not stated)
30.7 µM

====

# Test system: COLO 205 colon
# TEST DESCRIPTION: NCI tumour cell line growth inhibition, 48 h
QUANTITY NAME: GI50

N#CCCN1C/C(=C/c2ccc(Cl)cc2)C(=O)/C(=C/c2ccc(Cl)cc2)C1
1.25 µM
COC1C(O)C(CO)OC(OC2C(O)COC(OC3C(C)OC(OC4C(O[C@H]5CC[C@@]6(C)C(CC=C7[C@H]6CCC68C(=O)O[C@@](C)(CCCC(C)C)[C@H]6[C@@H](OC(C)=O)C[C@@]78C)C5(C)C)OCC(OS(=O)(=O)O)C4O)C(OC4OCC(O)C(O)C4O)C3O)C2O)C1O (stereo partly drawn)
0.0738 µM
COc1cc(/C=C/C(=O)c2cccc(-n3cc(-c4ccc(Cl)cc4)[nH]c3=O)c2)cc(OC)c1OC
7.38 µM
Oc1c(I)cc(I)c2cccnc12
3.6 µM
Cn1cc(C2=C(c3cccc(OC[C@@H](O)CO)c3)C(=O)NC2=O)c2ccccc21
> 18.3 µM
NS(=O)(=O)c1ccc(-c2cc3ccncc3cc2OCc2ccccc2)cc1
> 21.2 µM
CC(C)(O)CNc1nc(Nc2ccnc(C(F)(F)F)c2)nc(-c2cccc(C(F)(F)F)n2)n1
18.4 µM
c1ccc(-c2nc(N3CCNCC3)c3oc(-c4ccccc4)nc3n2)cc1
2.14 µM

====

Form field: TGI (one value per entry).
# Test system: HOP-62 NSCLC
# TEST DESCRIPTION: NCI tumour cell line growth inhibition, 48 h
QUANTITY NAME: TGI

Cc1ccc(S(=O)(=O)N/N=C(/CC(=O)c2c(C)n([O-])c3ccccc3[n+]2=O)C(=O)Nc2ccccc2C)cc1
> 100 µM
COc1ccc(N2C(=O)/C(=C\c3cc(OC)c(OC)c(OC)c3)SC2c2ccccc2)cc1 (centres undefined)
> 100 µM
O=C1Cc2c([nH]c3ccc(Br)cc23)-c2cc(O)c(O)cc2N1
> 100 µM
O=c1c2cc(S(=O)(=O)O)ccc2nc(COc2ccc(Oc3ccc(Cl)cc3Cl)cc2)n1-c1ccc(Oc2ccc(Cl)cc2)cc1Cl
46 µM
